# TEST: HUVEC growth inhibition – cell-based, human, primary screen (AID 575);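 note: 100% = median of untreated cell wells with 0.1% DMSO on each plate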
# EXPERIMENTAL_PARAMETERS: HUVEC proliferation, CellTiter-Glo luminescence, 72 h; at 10 µM; hits give low values
ASSAY_METRIC: viability (%)
Could you give me the number in %? Just the number is fine.

Given CN(C)S(=O)(=O)c1ccc(C(=O)NCc2cccs2)cc1 , state its recorded viability.
101

Given CCN(C1CCCCC1)S(=O)(=O)c1ccc(OC)c(C)c1 , state its recorded viability.
91.5

Given COc1ccc(CN(Cc2nc3ccccc3c(=O)[nH]2)C(=O)NC2CCCCC2)cc1 , state its recorded viability.
91.4

Given Cc1ccc(C(=O)N2CCN(C(=O)c3ccc(C)c(C)c3)C(C)C2)cc1C (stereo unspecified) , state its recorded viability.
97.5

Given COc1ccc(C)cc1S(=O)(=O)N(C)CC(=O)Nc1ccc2c(c1)OCCO2 , state its recorded viability.
107

Given O=C(O)CCCc1nc(-c2ccccc2)no1 , state its recorded viability.
96

This collection of values is drawn from PubChem BioAssay.
